# condition: 283 K; 101.33 kPa; Liquid; Concentric cylinders viscometry
We use 200 mPa·s as the dividing line for viscosity: on or above the line is Satisfied, below is Not satisfied.

| structure_string | category |
| --- | --- |
| CCCC[n+]1ccn(C)c1.O=S(=O)([N-]S(=O)(=O)C(F)(F)F)C(F)(F)F | Not satisfied |
| CCCCCCCCCCCCn1cc[n+](C)c1.O=S(=O)([N-]S(=O)(=O)C(F)(F)F)C(F)(F)F | Satisfied |
| CCCCCC[n+]1ccn(C)c1.O=S(=O)([N-]S(=O)(=O)C(F)(F)F)C(F)(F)F | Not satisfied |
| CCn1cc[n+](C)c1.O=S(=O)([N-]S(=O)(=O)C(F)(F)F)C(F)(F)F | Not satisfied |
| CCCCCn1cc[n+](C)c1.O=S(=O)([N-]S(=O)(=O)C(F)(F)F)C(F)(F)F | Not satisfied |
| CCCCCCCCn1cc[n+](C)c1.O=S(=O)([N-]S(=O)(=O)C(F)(F)F)C(F)(F)F | Satisfied |
| CCCCCCCCCCn1cc[n+](C)c1.O=S(=O)([N-]S(=O)(=O)C(F)(F)F)C(F)(F)F | Satisfied |
| CCCCCCCn1cc[n+](C)c1.O=S(=O)([N-]S(=O)(=O)C(F)(F)F)C(F)(F)F | Not satisfied |
| CCCn1cc[n+](C)c1.O=S(=O)([N-]S(=O)(=O)C(F)(F)F)C(F)(F)F | Not satisfied |

* * *

# condition: 298 K; 101.33 kPa; Liquid; Concentric cylinders viscometry
Catalogue of viscosity readings, one per entry.

| structure_string | quantity_unit | viscosity |
| --- | --- | --- |
| CCCn1cc[n+](C)c1.O=S(=O)([N-]S(=O)(=O)C(F)(F)F)C(F)(F)F | mPa·s | 45.75 |
| CCCCCCCCCCn1cc[n+](C)c1.O=S(=O)([N-]S(=O)(=O)C(F)(F)F)C(F)(F)F | mPa·s | 120.18 |
| CCCCCC[n+]1ccn(C)c1.O=S(=O)([N-]S(=O)(=O)C(F)(F)F)C(F)(F)F | mPa·s | 70.61 |

* * *

# condition: 278 K; 101.33 kPa; Liquid; Concentric cylinders viscometry
Catalogue of viscosity readings, one per entry.
observation_type: viscosity (mPa·s)

| structure_string | quantity_unit | observed |
| --- | --- | --- |
| CCCCCCCCCCn1cc[n+](C)c1.O=S(=O)([N-]S(=O)(=O)C(F)(F)F)C(F)(F)F | mPa·s | 403.2 |
| CCCCCC[n+]1ccn(C)c1.O=S(=O)([N-]S(=O)(=O)C(F)(F)F)C(F)(F)F | mPa·s | 212.3 |
| CCCC[n+]1ccn(C)c1.O=S(=O)([N-]S(=O)(=O)C(F)(F)F)C(F)(F)F | mPa·s | 137.62 |
| CCCCCCCCn1cc[n+](C)c1.O=S(=O)([N-]S(=O)(=O)C(F)(F)F)C(F)(F)F | mPa·s | 297.03 |
| CCCCCn1cc[n+](C)c1.O=S(=O)([N-]S(=O)(=O)C(F)(F)F)C(F)(F)F | mPa·s | 164.73 |
| CCCn1cc[n+](C)c1.O=S(=O)([N-]S(=O)(=O)C(F)(F)F)C(F)(F)F | mPa·s | 122.17 |
| CCn1cc[n+](C)c1.O=S(=O)([N-]S(=O)(=O)C(F)(F)F)C(F)(F)F | mPa·s | 76.05 |
